Assignment: determine reported melting point for the given molecules.

QUERY: Bench note: what melting point did `CSc1ccc(/C=C2/C(C)=C(CC(=O)N3CCC(N4CCCCC4)CC3)c3cc(F)ccc32)cc1` show?
RESULT: 145 to 148 °C

QUERY: // same read-out, input: CSc1ccc(/C=C2/C(C)=C(C(C)C(=O)NCCCN3CCCCC3C)c3cc(F)ccc32)cc1 (stereo not shown)
RESULT: 87 to 89 °C

QUERY: // repeat for `CSc1ccc(/C=C2/C(C)=C(CC(=O)N3CCC[C@H]3CN3CCCC3)c3cc(F)ccc32)cc1` and report
RESULT: 101 to 104 °C

QUERY: What would you report for CSc1ccc(/C=C2/C(C)=C(C(C)C(=O)N3CCC(N4CCCCC4)CC3)c3cc(F)ccc32)cc1 (stereo not shown) ?
RESULT: 80 to 82 °C
